FYI, the data here is from the NIST ThermoML archive (doi:10.1021/acs.jced.7b00740).

Provide the reported refractive index of each item.
# procedure_summary: refractive index (Na D-line) (dimensionless)
# test_conditions: 298.15 K; 101.33 kPa; Liquid; Standard Abbe refractometry
Please give the numeric answer without any surrounding text.

Q: Please indicate refractive index recorded for CCCCO
Result: 1.3971

Q: Please indicate refractive index recorded for CCCO
Result: 1.3835

Q: Please indicate refractive index recorded for CCCOCOC
Result: 1.3757

Q: Please indicate refractive index recorded for COCOCOC
Result: 1.379

Q: Please indicate refractive index recorded for CCCOCOCC [1-(ethoxymethoxy)propane]
Result: 1.3818

Q: Please indicate refractive index recorded for CCO
Result: 1.3595

----------
# test_conditions: 293.15 K; 101.33 kPa; Liquid; Pycnometric method
experimental_endpoint: mass density (kg/m3)
Write the answer as a number in kg/m3, unit excluded.

Q: Please indicate mass density recorded for COCOCOC
Result: 958

Q: Please indicate mass density recorded for CCCCO
Result: 809.5

Q: Please indicate mass density recorded for CCCO
Result: 803.6

Q: Please indicate mass density recorded for CCO
Result: 789.2

Q: Please indicate mass density recorded for CCCOCOCC [1-(ethoxymethoxy)propane]
Result: 831.1

Q: Please indicate mass density recorded for CCCOCOC
Result: 841.2
